Experiment: Acute toxicity
Details: mouse, in vivo; mice fasted overnight, observed for 7 days; route not stated
Where a name gives a salt, the structure may show the parent alone.
measured.metric: LD50 at 168 h (mg/kg)
One number for each entry, in mg/kg.

Below: 3 compounds and their reported LD50 at 168 h.
[
  {
    "compound": "CC(Cn1cc(-c2ccccc2)c2ccccc2c1=O)N(C)C (stereo not shown)",
    "LD50 at 168 h [mg/kg]": 505
  },
  {
    "compound": "CN(C)CCn1cc(-c2ccccc2)c2ccccc2c1=O [Compound B, hydrochloride]",
    "LD50 at 168 h [mg/kg]": 195
  },
  {
    "compound": "CN(C)CCCn1cc(-c2ccccc2)c2ccccc2c1=O",
    "LD50 at 168 h [mg/kg]": 662
  }
]

--- query ---
Item under review: CN(C)CCCn1cc(C#N)c2ccccc2c1=O [Compound C, hydrate] . Reported LD50 at 168 h?
699
